Where do these numbers come from? They come from patent US11939314B2.

biological target: PDGFRalpha(V561D) (Homo sapiens, UniProt P16234, V561D); construct: recombinant human PDGFRalpha, amino acids 550end containing the V561 D mutation; 6His (N); assay: PDGFRalpha(V561D) assay; conditions: recombinant human PDGFRalpha aa 550-end, 200 μM ATP, 1.4E-06 means 1.4×10^−6, read-out: Inhibition (IC50) of PDGFRα (V561D)
Sequence (P16234 550-1089 V561D): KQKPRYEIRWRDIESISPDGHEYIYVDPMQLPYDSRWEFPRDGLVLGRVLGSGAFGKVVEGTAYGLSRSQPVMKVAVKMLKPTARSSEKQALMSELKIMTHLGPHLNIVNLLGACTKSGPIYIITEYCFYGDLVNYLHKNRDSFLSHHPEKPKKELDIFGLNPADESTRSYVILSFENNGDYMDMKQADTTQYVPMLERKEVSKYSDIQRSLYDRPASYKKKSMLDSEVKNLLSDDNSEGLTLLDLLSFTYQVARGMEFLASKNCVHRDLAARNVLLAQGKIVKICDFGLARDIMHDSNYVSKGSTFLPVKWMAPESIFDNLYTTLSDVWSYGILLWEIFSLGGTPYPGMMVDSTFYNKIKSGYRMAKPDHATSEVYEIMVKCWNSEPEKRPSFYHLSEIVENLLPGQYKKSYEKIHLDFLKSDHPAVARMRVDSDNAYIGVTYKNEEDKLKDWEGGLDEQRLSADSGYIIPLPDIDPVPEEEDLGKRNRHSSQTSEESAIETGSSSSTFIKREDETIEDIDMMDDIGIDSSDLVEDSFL
pIC50: −log10 of the molar value.
MEASUREMENT KIND: pIC50

CHEMICAL STRING	MEASUREMENT KIND	OBSERVED RESULT
O=C(c1ccc(-n2cc(-c3cc4cc(F)ccc4[nH]c3=O)nn2)cc1)N1CCOCC1	pIC50	8.70
COC[C@H]1CCN(C(=O)c2ccc(-n3cc(-c4cc5cc(F)ccc5[nH]c4=O)nn3)cc2)C1	pIC50	7.80
O=C(c1ccc(-n2cc(-c3cc4cc(F)ccc4[nH]c3=O)nn2)cc1)N1CCC1	pIC50	7.28
CO[C@@H]1CCN(C(=O)c2ccc(-n3cc(-c4cc5cc(F)c(F)cc5[nH]c4=O)nn3)cc2)C1	pIC50	7.44

###

Target: c-Kit(V654A) (Homo sapiens, UniProt P10721, V654A)
Construct: amino acids 544-end containing the V654A mutation; GST (N)
Sequence (P10721 544-976 V654A): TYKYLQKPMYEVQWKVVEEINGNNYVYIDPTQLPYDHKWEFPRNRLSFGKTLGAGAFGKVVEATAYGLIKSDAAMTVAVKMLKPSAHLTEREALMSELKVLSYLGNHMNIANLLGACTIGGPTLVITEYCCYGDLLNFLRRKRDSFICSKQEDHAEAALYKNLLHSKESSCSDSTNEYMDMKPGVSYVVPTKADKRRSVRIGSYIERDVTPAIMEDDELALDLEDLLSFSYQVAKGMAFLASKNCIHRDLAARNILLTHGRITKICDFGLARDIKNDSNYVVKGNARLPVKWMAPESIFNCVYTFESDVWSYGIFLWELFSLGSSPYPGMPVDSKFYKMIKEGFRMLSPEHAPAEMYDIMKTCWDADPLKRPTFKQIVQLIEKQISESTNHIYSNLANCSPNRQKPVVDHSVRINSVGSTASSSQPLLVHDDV
Experiment: c-Kit(V654A) assay
Conditions: recombinant human c-Kit aa 544-end, 200 μM ATP, 1.4E-06 means 1.4×10^−6, read-out: Inhibition (IC50) of c-KIT (V654A)
Protocol: c-Kit(V654A) (N-terminal GST-tagged, recombinant human c-Kit, amino acids 544-end containing the V654A mutation) is incubated with 8 mM MOPS pH 7.0, 0.2 mM EDTA, 250 μM GGMEDIYEFMGGKKK, 10 mM MgAcetate and [gamma-33P-ATP] (specific activity approx. 500 cpm/pmol, concentration 200 μM). The reaction is initiated by the addition of the MgATP mix. After incubation for 40 minutes at room temperature, the reaction is stopped by the addition of 3% phosphoric acid solution. […]
Where a name gives a salt, the structure may show the parent alone.
MEASUREMENT KIND: log10 IC50 (log10 of the value in nM)

MOLECULE	ASSAYED SYSTEM	log10 IC50
CN1CCCN(c2ccc(-n3cc(-c4cc5cc(F)cnc5[nH]c4=O)nn3)cc2)CC1	c-Kit(V654A) (Homo sapiens, UniProt P10721, V654A)	1.91
CN(C)C[C@H]1CCCN1C(=O)c1ccc(-n2cc(-c3cc4cc(Cl)ccc4[nH]c3=O)nn2)cc1	c-Kit(V654A) (Homo sapiens, UniProt P10721, V654A)	1.40
CN(C)[C@@H]1CCCN(C(=O)c2ccc(-n3cc(-c4cc5ccc(F)cc5[nH]c4=O)nn3)cc2)C1	c-Kit(V654A) (Homo sapiens, UniProt P10721, V654A)	1.80
COC[C@@H]1CCCN1C(=O)c1ccc(-n2cc(-c3cc4cc(Cl)ccc4[nH]c3=O)nn2)cc1	c-Kit(V654A) (Homo sapiens, UniProt P10721, V654A)	1.64
CN(C)C1CCN(C(=O)c2ccc(-n3cc(-c4cc5cc(F)c(F)cc5[nH]c4=O)nn3)cc2)CC1	c-Kit(V654A) (Homo sapiens, UniProt P10721, V654A)	1.23
CN1CC2(CCN(C(=O)c3ccc(-n4cc(-c5cc6cc(Cl)ccc6[nH]c5=O)nn4)cc3)C2)C1	c-Kit(V654A) (Homo sapiens, UniProt P10721, V654A)	1.15
O=C(c1ccc(-n2cc(-c3cc4cc(F)ccc4[nH]c3=O)nn2)cc1)N1CC[C@H](F)C1	c-Kit(V654A) (Homo sapiens, UniProt P10721, V654A)	1.69
CN1CCN(C(=O)c2ccc(-n3cc(-c4cc5ccncc5[nH]c4=O)nn3)cc2)CC1	c-Kit(V654A) (Homo sapiens, UniProt P10721, V654A)	2.11
CC(C)(c1ccc(-n2cc(-c3cc4ccccc4[nH]c3=O)nn2)cc1)S(C)(=O)=O	c-Kit(V654A) (Homo sapiens, UniProt P10721, V654A)	1.23
N[C@H]1CCCN(C(=O)c2ccc(-n3cc(-c4cc5cc(F)c(F)cc5[nH]c4=O)nn3)cc2)C1 [A310, hydrochloride]	c-Kit(V654A) (Homo sapiens, UniProt P10721, V654A)	1.64
CCN(CC)CCNC(=O)c1ccc(-n2cc(-c3cc4cc(F)c(F)cc4[nH]c3=O)nn2)cc1	c-Kit(V654A) (Homo sapiens, UniProt P10721, V654A)	1.56
CN1CCN(C(=O)c2cccc(-n3cc(-c4cc5cc(F)ccc5[nH]c4=O)nn3)c2)CC1	c-Kit(V654A) (Homo sapiens, UniProt P10721, V654A)	1.38
O=c1[nH]c2ncccc2cc1-c1cnn(-c2ccccc2)c1	c-Kit(V654A) (Homo sapiens, UniProt P10721, V654A)	2.15
CN1CCN(C(=O)c2ccc(-n3cc(-c4cc5cc(F)ccc5[nH]c4=O)nn3)cc2)CC1=O	c-Kit(V654A) (Homo sapiens, UniProt P10721, V654A)	1.32
O=c1[nH]c2ccccc2cc1-c1cn(-c2ccc(OCCN3CCOCC3)cc2)nn1	c-Kit(V654A) (Homo sapiens, UniProt P10721, V654A)	1.18
O=C(c1ccc(-n2cc(-c3cc4cccnc4[nH]c3=O)nn2)cc1)N1CCNCC1	c-Kit(V654A) (Homo sapiens, UniProt P10721, V654A)	1.60
CC(=O)O[C@@H]1CCN(C(=O)c2ccc(-n3cc(-c4cc5cc(F)ccc5[nH]c4=O)nn3)cc2)C1	c-Kit(V654A) (Homo sapiens, UniProt P10721, V654A)	1.15
O=c1[nH]c2ccncc2cc1-c1cn(-c2ccc(F)cc2)nn1	c-Kit(V654A) (Homo sapiens, UniProt P10721, V654A)	3.04
O=C(c1ccc(-n2cc(-c3cc4cc(Cl)ccc4[nH]c3=O)nn2)cc1)N1CCCCC1CO (stereo not drawn)	c-Kit(V654A) (Homo sapiens, UniProt P10721, V654A)	1.34
CC(=O)N1CCN(CCOc2ccc(-n3cc(-c4cc5cc(F)ccc5[nH]c4=O)nn3)cc2)CC1 [A100a]	c-Kit(V654A) (Homo sapiens, UniProt P10721, V654A)	1.26
CN1CCN(CCOc2ccc(-n3cc(-c4cc5cc(F)ccc5[nH]c4=O)nn3)cc2)CC1	c-Kit(V654A) (Homo sapiens, UniProt P10721, V654A)	0.83
O=C(c1ccc(-n2cc(-c3cc4cc(F)ccc4[nH]c3=O)nn2)cc1)N1CCCC(O)C1 (stereo not drawn)	c-Kit(V654A) (Homo sapiens, UniProt P10721, V654A)	1.26
CCN(CC)[C@H]1CCCN(C(=O)c2ccc(-n3cc(-c4cc5cc(F)ccc5[nH]c4=O)nn3)cc2)C1	c-Kit(V654A) (Homo sapiens, UniProt P10721, V654A)	1.88
CO[C@H]1CN(C(=O)c2ccc(-n3cc(-c4cc5cc(F)ccc5[nH]c4=O)nn3)cc2)C[C@@H]1OC	c-Kit(V654A) (Homo sapiens, UniProt P10721, V654A)	1.88
CN1CCN(c2ccc(-n3cc(-c4cc5cc(F)ccc5[nH]c4=O)nn3)cc2)C(=O)C1	c-Kit(V654A) (Homo sapiens, UniProt P10721, V654A)	0.90
CN(C)[C@H]1CCCN(C(=O)c2ccc(-n3cc(-c4cc5cc(F)c(F)cc5[nH]c4=O)nn3)cc2)C1	c-Kit(V654A) (Homo sapiens, UniProt P10721, V654A)	1.86
O=c1[nH]c2ccccc2cc1-c1cn(-c2ccccc2)nn1	c-Kit(V654A) (Homo sapiens, UniProt P10721, V654A)	1.70
O=C(c1ccc(-n2cc(-c3cc4cc(F)ccc4[nH]c3=O)nn2)cc1)N1CCOCC1	c-Kit(V654A) (Homo sapiens, UniProt P10721, V654A)	0.78
O=C(c1ccc(-n2cc(-c3cc4cc(F)ccc4[nH]c3=O)nn2)cc1)N1CCOC[C@H]1CO	c-Kit(V654A) (Homo sapiens, UniProt P10721, V654A)	1.81
O=c1[nH]c2ccccc2cc1-c1cn(-c2ccc(N3CCCNCC3)cc2)nn1	c-Kit(V654A) (Homo sapiens, UniProt P10721, V654A)	1.15
O=C(NCCO)c1ccc(-n2cc(-c3cc4cccnc4[nH]c3=O)nn2)cc1	c-Kit(V654A) (Homo sapiens, UniProt P10721, V654A)	2.23
COC[C@H]1CC[C@H](COC)N1C(=O)c1ccc(-n2cc(-c3cc4cc(F)ccc4[nH]c3=O)nn2)cc1	c-Kit(V654A) (Homo sapiens, UniProt P10721, V654A)	1.81
CO[C@@H]1CCN(C(=O)c2ccc(-n3cc(-c4cc5cc(F)ccc5[nH]c4=O)nn3)cc2)C1	c-Kit(V654A) (Homo sapiens, UniProt P10721, V654A)	0.89
